Recorded normalized growth, one value per entry.
Assay Explanation: chemical genetic growth profiling, strain panel (AID 1159580);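 further: tested at 20 µM; growth read once vehicle control cultures reached saturation at 30 °C; 1 = growth at the plate median or of vehicle wells; lower values mean less growth of the strain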
Recorded Conditions: S. cerevisiae deletion strains, growth OD, locus YJL166W, strain qcr8, hits give low values
Out of some 5,500 compounds screened, about 2,000 (36%) were called active. About 18% were inconclusive and are not listed. Some of the results follow.
Quantity: normalized growth

>>> df
                                   compound           quantity  reading
0      Clc1ccc2c(c1)C(N1CCNCC1)=Nc1ccccc1O2  normalized growth    0.984
1  Nc1ccn(C2O[C@H](CO)[C@@H](O)[C@H]2O)c(=O)n1 (stereo partly specified)  normalized growth    0.999
2     CN1CCN(C2=Nc3ccccc3Oc3ccc(Cl)cc32)CC1  normalized growth    0.975
3  CSc1ccc2c(c1)N(CCC1CCCCN1C)c1ccccc1S2 (stereo unspecified)  normalized growth     0.97
4  CC1(C)C(O)CC(O)C2(C)C1CC(O)C1(C)C2CCC2(C)C(c3ccoc3)OC(=O)C3OC321 (stereo unspecified)  normalized growth    0.982
5  CNC(=O)Oc1ccc2c(c1)[C@]1(C)CCN(C)[C@@H]1N2C  normalized growth     1.02
